# Test system: OVCAR-5 ovarian
# measurement-description: NCI-60 one-dose screen, 48 h
# applied-conditions: 10 µM unless noted
The panel holds about 83,000 compounds, 20% with a hit somewhere; the sample as a whole holds those more often. Calls of active or inactive are those of the source. Rule for the calls: active = growth percent below 10; inactive = the rest.
// one of Y = active, N = inactive, no free text

Would you please look over these solved cases?
- COc1cc2nc(Nc3cccc(F)c3)nc(Nc3cc(C)[nH]n3)c2cc1OC: Y
- Cc1nn(-c2ccccc2)c(N2CCCCC2)c1/C=N/NC(=O)Cn1c(=O)sc2ccccc21: N
- Nc1ncnc2c1c(-c1ccc(Oc3ccccc3)cc1)nn2CC1SSCC1O (stereo not given): N
- COc1cc(C(=O)C(=O)c2cc(OC)c(O)c(OC)c2)cc(OC)c1O: N
- O=C(CSc1nnc2sc(Nc3cccc(Cl)c3)nn12)c1ccc(F)cc1: N

State the result this test recorded for `O=C1C(Cl)=C(NCCN2CCOCC2)C(=O)c2ncccc21` .
Y

Same read-out for `CC1(C)CC2=C3C=C[C@@H]4[C@@]5(C)CC[C@H](O)C(C)(C)[C@@H]5CC[C@@]4(C)[C@]3(C)CC[C@@]2(C(=O)O)CC1=O` ?
N

====

Known growth of a selection of compounds
# Tested on: CCRF-CEM leukemia
# measurement-description: NCI-60 one-dose screen, 48 h (100 = growth as untreated, 0 = no growth, -100 = all killed)
# applied-conditions: 10 µM unless noted
About 83,000 compounds went through this panel and 20% of them were active in at least one assay; those are over-represented in the sample as a whole.
Quick reminder: number only, in %, skip the unit.

Recorded growth, per entry:
• C#Cc1cccc(Nc2nc3ccc([N+](=O)[O-])cc3nc2Nc2cccc(C#C)c2)c1 = -33.9
• Cc1ccc2[nH]c(=O)c3c(c2c1)OC(N)=C(C#N)C31C(=O)c2cccc3cccc1c23 (stereo not given) = 95.3

Reported growth for COc1ccc(C2C3=C(COC3=O)N(CCO)c3cc4c(cc32)OCCO4)cc1OC (stereo not given) : what is it?
21.1

Try CSCCC(NC(=O)c1ccccc1)C(=O)N/N=C1\S/C(=C/c2ccc(Cl)cc2)C(=O)N1C (stereo not given) next.
4.24

And what about the compound `CCCCCCCCNc1cc2c3c(c1)CCCN3CCC2` ?
42.8

====

# Tested on: A498 renal
# measurement-description: NCI-60 one-dose screen, 48 h
# applied-conditions: 10 µM unless noted
This is part of a sample that, as a whole, favours compounds with a hit. Of some 83,000 tested, about 20% had one in any assay. Calls of active or inactive are those of the source. Rule for the calls: active = growth percent below 10; inactive = the rest.
Answer with one of the outcomes given here: active, inactive

These recorded examples may help you get a feel for the data.
• CCCCCCCC/C=C\CCCCCCCCOc1ccc(CC(=O)NCC[N+](C)(C)C)cc1 = inactive
• CC(C)c1ccc(C(=O)Nc2sc3cc(O)ccc3c2C#N)cc1 = active
• CCN(CC)CCN(CCN(CC)CC)c1ccccc1 = inactive
• COc1cc(C(=O)C(=O)c2cc(OC)c(O)c(OC)c2)cc(OC)c1O = inactive
• COC(=O)/C(CCC=C(C)C)=C1\[C@@H](OC(C)=O)C[C@@]2(C)[C@H]1CC(=O)[C@H]1[C@@]3(C)CCC(N4CCCC4)[C@@H](C)[C@@H]3CC[C@@]12C (some centres not stated) = inactive

// param item: `N=c1sc(Cc2cc(Cl)ccc2Cl)cn1CC(=O)c1ccccc1` ; yields the recorded call
inactive

Moving on to `O=C(c1ccc(Cl)cc1Cl)N1c2ccccc2Sc2ccccc21`
inactive

The origin of these recorded values is PubChem BioAssay (NCI).
